Overview of reported pEC50 across a group of molecules:
System: Z-138 cell line
Assay: Z-138 Proliferation Assay (Cell Titer Glo, 5 days)
Type: cell-based
Conditions: Homo sapiens, 120 h; Z-138 cells, 5 days, Cell Titer Glo; read-out: Proliferation EC50
pEC50: −log10 of the molar value.

Recorded results for 3 molecules are shown here.
molecule: CC(=O)N1CCC(Nc2cc(C(=O)NC[C@H](O)CN3CCc4ccccc4C3C)ccn2)CC1 (stereo partly shown)
target.of.assay: Z-138 cell line
pEC50: 6.00 to 7.00
--
molecule: CCC(=O)N1CCC(Nc2cc(C(=O)NC[C@H](O)CN3CCc4ccccc4C3)ccn2)CC1
target.of.assay: Z-138 cell line
pEC50: > 7.00
--
molecule: CC(C)(C)C(=O)N1CCC(Nc2cc(C(=O)NC[C@H](O)CN3CCc4ccccc4C3)ccn2)CC1
target.of.assay: Z-138 cell line
pEC50: > 7.00

Exam item: I'm curious: which pEC50 was measured for `CC(=O)N1CCC(Nc2cc(C(=O)NC[C@H](O)CN3CCc4c(C)cccc4C3)ncn2)CC1` tested on Z-138 cell line?
Marked response: 5.00 to 6.00

Exam item: Try the molecule `O=C(NC[C@H](O)CN1CCc2ccccc2C1)c1cc(N[C@H]2C[C@@H](N3CCOCC3)C2)ncn1`
Marked response: 6.00 to 7.00

Exam item: Try the molecule `CC(C)CC(=O)N1CC(Nc2cc(C(=O)NC[C@H](O)CN3CCc4ccccc4C3)ncn2)C1`
Marked response: > 7.00

Exam item: Try the molecule `CC(C)(C)C(=O)N1CC(Nc2cc(C(=O)NC[C@H](O)CN3CCc4ccccc4C3)ncn2)C1`
Marked response: 6.00 to 7.00

====

Overview of reported pEC50 across a group of molecules:
System: Z-138 cell line
Experiment: Z-138 Proliferation Assay (Cell Titer Glo, 5 days)
Type: cell-based
Conditions: Homo sapiens, 120 h; Z-138 cells, 5 days, Cell Titer Glo; read-out: Proliferation EC50
Experimental: RPMI/Glutamax medium, penicillin-streptomycin, heat inactivated fetal bovine serum were purchased from Life Technologies, Grand Island, N.Y., USA. V-bottom polypropylene 384-well plates were purchased from Greiner Bio-One, Monroe, N.C., USA. […] SpectraMax M5 plate reader was purchased from Molecular Devices LLC, Sunnyvale, Calif., USA. […] Cell viability was measured by quantitation of ATP present in the cell cultures, adding […] of Cell Titer Glo® reagent to the cell plates. […]
pEC50: −log10 of the molar value.

Recorded results for 3 molecules are shown here.
molecule: O=C(NC[C@H](O)CN1CCc2ccccc2C1)c1ccnc(Nc2ccncc2)c1 [Compound 412]
pEC50: 6.00 to 7.00

molecule: CC(C)(C)C(=O)N1CCC(Nc2cc(C(=O)NC[C@H](O)CN3CCc4ccccc4C3)ncn2)CC1 [Compound 410]
pEC50: > 7.00

molecule: CO[C@H]1C[C@H](Nc2cc(C(=O)NC[C@H](O)CN3CCc4ccccc4C3)ncn2)C1 [Compound 559]
pEC50: 6.00 to 7.00

Now turn to the next molecule.
Exam item: Which pEC50 is listed for CC(=O)N[C@H]1C[C@H](Nc2cc(C(=O)NC[C@H](O)CN3CCc4ccccc4C3)ncn2)C1 [Compound 440] ?
Marked response: 6.00 to 7.00

====

System: Z-138 cell line
Assay: Z-138 Proliferation Assay (Cell Titer Glo, 5 days)
Format: cell-based
Details: Homo sapiens, 120 h; Z-138 cells, 5 days, Cell Titer Glo; read-out: Proliferation EC50
measured.property: EC50

Exam item: Which EC50 is listed for `O=C(NC[C@H](O)CN1CCc2ccccc2C1)c1cc(NC2CC3(COC3)C2)ncn1` ?
Marked response: < 100 nM

Exam item: Try the compound NC1=NC(C(=O)NC[C@H](O)CN2CCc3ccccc3C2)=CC2=NC(CO)CN12 (stereo partly shown)
Marked response: > 5000 nM

Exam item: Try the compound CC(=O)N1CCC(Nc2cc(C(=O)NCC(O)C(C)N3CCc4ccccc4C3)ccn2)CC1 (stereo not shown)
Marked response: > 5000 nM

Exam item: Try the compound `CN(C)C(=O)CN1CC(Nc2cc(C(=O)NC[C@H](O)CN3CCc4ccccc4C3)ncn2)C1`
Marked response: 10000 to 50000 nM

Exam item: Try the compound `O=C(NC[C@H](O)CN1CCc2ccccc2C1)c1cnnc(NC2COC2)c1`
Marked response: 1000 to 10000 nM

Exam item: Try the compound `CC(=O)N1CCC(Nc2cc(C(=O)NC[C@H](O)CN3CCc4cccc(C)c4C3)ccn2)CC1`
Marked response: < 100 nM

Exam item: Try the compound CN1CCC(Nc2cc(C(=O)NC[C@H](O)CN3CCc4ccccc4C3)cnn2)C1 (stereo partly shown)
Marked response: > 5000 nM

Exam item: Try the compound CC(O)(CNC(=O)c1cc(NC2CCNCC2)ncn1)CN1CCc2ccccc2C1 (stereo not shown)
Marked response: > 5000 nM
